I'd be grateful if you could share measured TGI for these entries.
Tested on: MDA-MB-435
Assay: NCI tumour cell line growth inhibition, 48 h

TGI recorded for this molecule, `CSC(=S)N/N=C/c1ccccc1` , is > 100 µM

TGI recorded for this molecule, `Cc1[nH]c2ncn3ncnc3c2c1Cc1ccccc1` , is > 100 µM

TGI recorded for this molecule, `CS(=O)(=O)N1CCN(Cc2cc3nc(-c4cccc5[nH]ncc45)nc(N4CCOCC4)c3s2)CC1` , is > 100 µM

TGI recorded for this molecule, `Cc1nc2c(O)cccc2c(=O)[nH]1` , is > 1000 µM

TGI recorded for this molecule, `SC[C@@H]1COC[C@H](CS)S1` , is > 100 µM

TGI recorded for this molecule, `COc1c(C(=O)/C(=N/Nc2ccccc2)C(C)=O)c(O)c(OC)c2occc12` , is > 100 µM

TGI recorded for this molecule, `O=C(N1CCOCC1)C1(c2ccccc2)CCNCC1` , is > 100 µM

TGI recorded for this molecule, COc1ccc(OC)c(C2CCCc3c2cnc2nc(N)nc(N)c32)c1 (centres undefined) , is > 100 µM

TGI recorded for this molecule, `Cn1c(=O)nc2n(CCO)ccnc-2c1=O` , is > 100 µM

----------
Tested on: MDA-MB-435
Reply using exactly one outcome from active, inactive

Data request: Hello, I am checking results. What call was entered for O=C(O)c1cc(N/C=C2\C(=O)c3ccccc3OC2O)ccc1O (centres undefined) ?
Data returned: inactive

Data request: Hello, I am checking results. What call was entered for COc1ccc(S(=O)(=O)N2CCN(C(=O)OCc3ccccc3)CC2C(=O)NO)cc1 (centres undefined) ?
Data returned: inactive

Data request: Hello, I am checking results. What call was entered for `CCc1ccc(CCC(=O)Nc2ncc(Cc3cc(Cl)ccc3Cl)s2)o1` ?
Data returned: active

Data request: Hello, I am checking results. What call was entered for Nc1ncnc2c1c(-c1cccc(OCc3ccccc3)c1)cn2C1CC(CN2CCCC2)C1 (centres undefined) ?
Data returned: inactive

----------
Tested on: DMS 114 small cell lung
Test: NCI tumour cell line growth inhibition, 48 h
assay-metric: TGI

TGI recorded for this molecule, O=C1NC2OCC(O)C(O1)C2O (stereo not drawn) , is > 100 µM

TGI recorded for this molecule, `O=C1C(c2ccc([N+](=O)[O-])cc2)=[N+]([O-])c2ccccc21` , is 27.1 µM

TGI recorded for this molecule, COc1cc(C2c3cc4c(cc3OC3(O)COC(=O)C23)OCO4)cc(OC)c1OC (stereo not drawn) , is > 100 µM

----------
Tested on: HCC-2998 colon
Test: NCI tumour cell line growth inhibition, 48 h
assay-metric: TGI (µM)
Reply numerically in µM, unit not repeated.

TGI recorded for this compound, `CC(=O)O[C@H]1C(=O)[C@@]2(C)[C@H]([C@H](OC(=O)c3ccccc3)[C@]3(O)C[C@H](OC(=O)[C@H](O)[C@@H](NC(=O)c4ccccc4)C4CCCCC4)C(C)=C1C3(C)C)[C@]1(OC(C)=O)CO[C@@H]1C[C@@H]2O` , is 16.4

TGI recorded for this compound, `Oc1ccc2ccccc2c1-c1c(Nc2ccccc2)ccc2ccccc12` , is 29.2

TGI recorded for this compound, `O=C(CSc1nc2ccc([N+](=O)[O-])cc2[nH]1)Nc1cccc(Cl)c1` , is 13.6
